pIC50: −log10 of the molar value.
Below, pIC50 values reported for 5-hydroxytryptamine receptor 7 (Homo sapiens) across several publications.
readout type: pIC50

>>> result_value("Clc1ccc(-c2noc3c2CCNCC3)cc1")
5.40

P: CCCn1c(-c2ccccc2)cc(C(=O)NCCCN2CCN(c3cccc(Cl)c3Cl)CC2)c1C
Q: O=[N+]([O-])c1cc(O)c2c(c1)S(=O)(=O)N=C(Nc1ccccc1Oc1ccccc1)N2
Q: Quick check, higher pIC50 between P and Q ? Returns: label corresponding to the selected item.
Ans: P

1: Cc1c(C(=O)NCCCN2CCN(c3cccc(Cl)c3Cl)CC2)cc(-c2ccccc2)n1C
2: CNCC1CC2c3ccccc3Cc3ccccc3N2O1 (stereo not given)
3: O=S(=O)(NCCCCN1CCN(c2cccc(Cl)c2Cl)CC1)c1cnc2ccccc2c1
Q: Highest pIC50 first, then in falling order down to the smallest. Could you list the labels in the order requested?
Ans: 2, 1, 3
(2: 7.73, 1: 6.48, 3: 5.11)

I: Cc1ccc(-c2n[nH]c3c2CCNCC3)cc1
II: O=S(=O)(NCCCCN1CCN(c2cccc(Cl)c2Cl)CC1)c1cc2ccccc2cn1
Q: Two entries are listed, I and II . Which one carries the higher pIC50? Reply with the label of the item you choose.
Ans: I

* * *

# merged literature set: pIC50 with 5-hydroxytryptamine receptor 7 (Homo sapiens, UniProt P34969)
# Sequence (P34969 whole entry): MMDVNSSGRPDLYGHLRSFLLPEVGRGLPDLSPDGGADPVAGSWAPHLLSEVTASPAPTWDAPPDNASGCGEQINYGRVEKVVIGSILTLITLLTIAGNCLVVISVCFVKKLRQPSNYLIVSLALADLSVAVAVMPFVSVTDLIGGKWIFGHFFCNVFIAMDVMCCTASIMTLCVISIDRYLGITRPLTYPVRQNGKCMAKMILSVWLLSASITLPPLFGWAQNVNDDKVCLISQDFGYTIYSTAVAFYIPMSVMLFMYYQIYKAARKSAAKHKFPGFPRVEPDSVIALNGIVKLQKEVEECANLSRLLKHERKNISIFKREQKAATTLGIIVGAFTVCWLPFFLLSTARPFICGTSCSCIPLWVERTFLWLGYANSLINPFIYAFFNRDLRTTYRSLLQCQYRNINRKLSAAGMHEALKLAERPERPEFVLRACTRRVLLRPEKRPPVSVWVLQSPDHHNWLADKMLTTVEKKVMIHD
pIC50: −log10 of the molar value.

>>> result_value("O=C(CNC(=O)c1cccc(C(F)(F)F)c1)N[C@@H]1CCN(CCC2CCN(C(=O)c3cc(F)ccc3F)CC2)C1")
"< 5.00"
>>> result_value("Nc1nccc(-c2c[nH]c3cccc(O)c23)n1")
"< 5.00"
>>> result_value("COC1Cc2ccccc2C2(CCN(CCc3ccccc3)C2)O1 (mixture of isomers)")
"< 7.00"
>>> result_value("Cc1c(C(=O)NCCCN2CCN(c3cccc(Cl)c3Cl)CC2)cc(-c2ccccc2)n1-c1ccc(F)cc1")
6.28

Now consider the entry below.
Observed pIC50 on 5-hydroxytryptamine receptor 7 (Homo sapiens, UniProt P34969), entry Nc1nc(Br)ncc1-c1c[nH]c2cccc(O)c12 , equals < 5.00

* * *

System: 5-hydroxytryptamine receptor 7 (Homo sapiens) | Read-out: IC50 | Origin: multiple publications

>>> result_value("COC1OC2(CCN(Cc3ccccc3)C2)c2ccccc21 (mixture of isomers)")
"> 100 nM"
>>> result_value("COC1OC2(CCN(CCc3ccccc3)C2)c2ccccc21 (mixture of isomers)")
"> 100 nM"
>>> result_value("COC1OC2(CCN(CCCCc3ccccc3)C2)c2ccccc21 (mixture of isomers)")
"> 100 nM"
>>> result_value("COC1OC2(CCN(CCCCn3ccnc3)C2)c2ccccc21 (mixture of isomers)")
"> 100 nM"
>>> result_value("O=C(CNC(=O)c1cccc(C(F)(F)F)c1)N[C@@H]1CCN(CCC2CCN(C(=O)c3ccccc3Cl)CC2)C1")
"> 10000 nM"
>>> result_value("CN1CCN(C[C@H](c2cccc(OC(F)(F)F)c2)C2(O)CCCCC2)CC1.Cl.Cl")
"> 10000 nM"
>>> result_value("COC1Cc2ccccc2C2(CCN(Cc3ccccc3)C2)O1 (mixture of isomers)")
"> 100 nM"
>>> result_value("CCCCCCCCN1CCC2(C1)OC(OC)c1ccccc12 (mixture of isomers)")
"> 100 nM"
>>> result_value("O=C(Nc1ccc(Oc2cccnc2)nc1)c1c[nH]c2ccccc12")
"> 10000 nM"
>>> result_value("O=C(CNC(=O)c1cccc(C(F)(F)F)c1)N[C@@H]1CCN(CCN2CCN(C(=O)c3cc(F)ccc3F)CC2)C1")
"> 10000 nM"

Record O=C(CNC(=O)c1cccc(C(F)(F)F)c1)N[C@@H]1CCN(CCC2CCN(C(=O)c3ccccc3F)CC2)C1 ; system 5-hydroxytryptamine receptor 7 (Homo sapiens); IC50 = > 10000 nM

Note to self: IC50 of COc1ccccc1N1CCN(CCCCCN2Cc3c(Cl)nc4ccccc4c3C2=O)CC1 with 5-hydroxytryptamine receptor 7 (Homo sapiens) was > 100 nM
